All figures here come from the supplement of paper PMC12783771.

B1: library; numbered along this chain (parent)
chain: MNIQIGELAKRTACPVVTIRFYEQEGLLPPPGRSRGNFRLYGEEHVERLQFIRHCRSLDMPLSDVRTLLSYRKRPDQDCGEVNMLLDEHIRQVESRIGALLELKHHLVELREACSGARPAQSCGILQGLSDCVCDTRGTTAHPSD

# Variants of: B1
# PROCEDURE SUMMARY: sfGFP reporter fluorescence (15 h) (µM FITC); higher = stronger transcriptional activation
# ASSAY CONTEXT: library round: Round 1; ligand: 1 µM Pb
Where sfGFP reporter fluorescence equals or exceeds 0.1, the correct label is Satisfied; where it does not, the label is Not satisfied.

A selection of reference data follows.
{"RESIDUE CODES": "MNIQIGELAKRTACPVVTIRFYEQEGLLPPPGRSRGNFRLYGEEHVERLQFIRHCRSLDMPLSDVRTLLSYRKRPDQDCGEVNMLLDEHIRQVESRIGALLELKHHLVELREACSGARPAQSCGILQHLSCCVCDTRGTTAHPSD", "GROUP LABEL": "Not satisfied"}
{"RESIDUE CODES": "MNIQIGELAKRTACPVVTIRFYEQEGLLPPPGRSRGNFRLYGEEHVERLQFIRHCRSLDMPLSDVRTLLSYRKRPDQDCGEVNMLLDEHIRQVESRIGALLELVHHGVELREACSGARPAQSCGILQMLSDCVCDTRGTTAHPSD", "GROUP LABEL": "Not satisfied"}
{"RESIDUE CODES": "MNIQIGELAKRTACPVVTIRFYEQEGLLPPPGRSRGNFRLYGEEHVERLQFIRHCRSLDMPLSDVRTLLSYRKRPDQDCGEVNMLLDEHIRQVESRIGALLELKHHLVELREACSGARPAQSCGILQSLSDCVCATRGTTAHPSD", "GROUP LABEL": "Not satisfied"}
{"RESIDUE CODES": "MNIQIGELAKRTACPVVTIRFYEQEGLLPPPGRSRGNFRLYGEEHVERLQFIRHCRSLDMPLSDVRTLLSYRKRPDQDCGEVNMLLDEHIRQVESRIGALLELKHHLVELREACSGARPAQSCGILQLLSDCVEDTRGTTAHPSD", "GROUP LABEL": "Satisfied"}
{"RESIDUE CODES": "MNIQIGELAKRTACPVVTIRFYEQEGLLPPPGRSRGNFRLYGEEHVERLQFIRHCRSLDMPLSDVRTLLSYRKRPDQDCGEVTMLLDEHIRQVESRIGALLELKHHLVELREACSGARPAQSCGILQGLSSCVCDTRGTTAHASD", "GROUP LABEL": "Not satisfied"}

q: Dear colleague, could you confirm whether MNIQIGELAKRTACPVVTIRFYEQEGLLPPPGRSRGNFRLYGEEHVERLQFIRHCRSLDMPLSDVRTLLSYRKRPDQDCGEVNMLLDEHIRQVESRIGALLELKHHLVELREACSGARPAQSCGILQGLSSCVCATRGTTAHPSD has sfGFP reporter fluorescence at or above 0.1?
a: Not satisfied

q: Follow-up entry: MNIQIGELAKRTACPVVTIRFYEQEGLLPPPGRSRGNFRLYGEEHVERLQFIRHCRSLDMPLSLVRTLLSYRKRPDQDCGEVNMLLDEHIRQVESRIGALLELVHHRVELREACSGARPAQSCGILQGLSDCVCDTRGTTAHPSD
a: Not satisfied

q: What do we get for MNIQIGELAKRTACPVVTIRFYEQEGLLPPPGASRLNFRLYGEEHVERLQFIRHCRSLDMPLSDVRTLLSYRKRPDQDCGEVNMLLDEHIRQVESRIGALLELKHHLVELREACSGARPAQSCGILQGLSDCVCDTRGTTAHPSD ?
a: Not satisfied

q: Same lookup for MNIQIGELAKRTACPVVTIRFYEQEGLLPPPGRSRGNFRLYGEEHVERLQFIRHCRSLDMPLSDVRTLLSYRKRPDQDCGEVTMLLDEHIRQVESRIGALLELKHHLVELREACSGARPAQSCGILQGLSDCVCFTRGTTAHPSD , please.
a: Not satisfied

q: Try MNIQIGELAKRTACPVVTIRFYEQEGLLPPPGRSRGNFRLYGEEHVERLQFIRHCRSLDLNLSKVRTLLSYRKRPDQDCGEVNMLLDEHIRQVESRIGALLELVHHEVELREACSGARPAQSCGILQILSDCVCDTRGTTAHPSD next.
a: Not satisfied

q: Same thing, different variant: MNGQIGELAKRTACPVVTIRFYEQEGLLPPPGRSRGNFRLYGEEHVERLQFIRHCRSLDMPLSDVRTLLSYRKRPDQDCGEVNMLLDEHIRQVESRIGALLELVHHLVELREACSGARPAQSCGILQGLSDCVCDTRGTTAHPSD
a: Not satisfied

q: Entry MNIQIGELAKRTACPVVTIRFYEQEGLLPPPGRSRGNFRLYGEEHVERLQFIRHCRSLDMPLSDVRTLLSYRKRPDQDCGEVNMLLDEHIRQVESRIGALLELVHHLVELDEACSGARPAQSCGILQGLSDCVCDTRGTTAHPSD please
a: Not satisfied

q: Proceed to MNIQIGELAKRTACPVVTIRFYEQEGLLPPPGRSRGNFRLYGEEHVERLQFIRHCRSLDMPLSDVRTLLSYRKRPDQDCGEVNMLLDEHIRQVCSRIGALLELVHHLVELREACSGARPAQSCGILQGLSDCVCDTRGTTAHPSD
a: Not satisfied

q: Entry to check: MNIQIGELAKRTACPVVTIRFYEQEGLLPPPGRSRGNFRLYGEEHVERLQFIRHCRSLDMNLSDVRTLLSYRKRPDQDCGEVNMLLDEHIRQVESRIGALLELKHHLVELREACSGARPAQSCGILQGLSACVCDTRGTTAHWSD
a: Satisfied

q: Ok, now MNIQIGELAKRTACPCVTIRFYEQEGLLPPPGRSRGNFRLYGEEHYERLQFIRHCRSLDMPLSDVRTLLSYRKRPDQDCGEVNMLLDEHIRQVESRIGALLELKHHLVELREACSGARPAQSCGILQGLSDCVCDTRGTTAHPSD
a: Not satisfied

q: Can you handle MNIQIGELAKRTACPVVTIRFYEQEGLLPPPGRSRGNFRLYGEEHVERLQFIRHCRSLDMPLSDVRTLLSYRKRPDQDCGEVTMLLDEHIRQVESRIGALLELKHHLVELREACSGARPAQSCGILQGLSDCVCDTRGTTAHWSD next?
a: Not satisfied

q: Quick one: MNIQIGELAKRTACPVVTIRFYEQEGLLPPPGRSRGNFRLYGEEHVERLQFIRHCRSLDMNLSDVRTLLSYRKRPDQDCGEVNMLLDEHIRQVESRIGALLELKHHLVELREACSGARPAQSCGILQGLSDCVCRTRGTTAHPSD
a: Satisfied

q: Proceed to MNIQIGELAKRTACPVVTIRFYEQEGLLPPPGRSRGNFRLYGEEHVERLQFIRHCRSLDMPLSDVRTLLSYRKRPDQDCGEVNMLLDEHIRQVESRIGALLELKHHLVELIEACSGARPAQSCGILQGLSDCVPDTRGTTAHPSD
a: Not satisfied

q: What do you get for MNIQIGELAKRTACPVVTIRFYEQEGLLPPPGRSRGNFRLYGEEHVERLQFIRHCRSLDMPLSAVRTLLSYRKRPDQDCGEVNMLLDEHIRQVESRIGALLELKHHLVELREACSGARPAQSCGILQGLSDCVCRTRGTTAHPSD ?
a: Satisfied

q: Do the same for MNIQIGELAKRTACPVVTIRFYEQEGLLPPPGRSRGNFRLYGEEHVERLQFIRHCRSLDMPLSDVRTLLSYRKRPDQDCGEVTMLLDEHIRQVESRIGALLELKHHCVELREACSGARPAQSCGILQMLSDCVCATRGTTAHPSD please
a: Satisfied

q: Subsequent entry: MNIQIGELAKRTACPVVTIRFYEQEGLLPPPGRSRGNFRLYGEEHVERLQFIRHCRSLDMPLSDVRTLLSYRKRPDQDCGEVNMLLDEHIRQVESRIGAVLELKHHLVELREACSGARPAQSCGILQILSDCVCDTRGTTAHPSD
a: Satisfied

q: Also, MNIQIGELAKRTACPVVTIRFYEQEGLLPPPGRSRGNFRLYGEEHVERLQFIRHCRSLDMPLSTVRTLLSYRKRPDQDCGEVNMLLDEHIRQVESRIGALLELKHHLVELRIACSGARPAQSCGILQGLSDCVCATRGTTAHPSD please.
a: Satisfied

q: Further, for MNIQIGELAKRTACPVVTIRFYEQEGLLPPPGRSRGNFRLYGEEHVERLQFIRHCRSLDMPLSDVRTLLSYRKRPDQDCGEVNMLLDEHIRQVESRIGALLELKHHLVELFAACSGARPAQSCGILQGLSDCVCDTRGTTAHPSD ?
a: Not satisfied

q: Try this variant too: MNIQIGELAKRTACPVVTIRFYEQEGLLPPPGRSRGNFRLYGEEHVERLQFIRHCRSLDMTLSDVRTLLSYRKRPDQDCGEVNMLLDEHIRQVESRNGALLELVHHLVELREACSGARPAQSCGILQGLSDCVCDTRGTTAHPSD
a: Not satisfied
